Test system: EKVX NSCLC
Test: NCI-60 one-dose screen, 48 h
Conditions: 10 µM unless noted
Protocol: Growth inhibition of the EKVX human Non-Small Cell Lung tumor cell line is measured as a screen for anti-cancer activity. Cells are grown in 96 well plates and exposed to the test compound for 48 hours. Compounds are tested at a single concentration, which is 10^-5 M for most compounds. The reported endpoint is percent growth (GI% or GIPRCNT), where numbers from 0 - 100% represent growth inhibition, and numbers from -100% - 0 represent cell death. […]
This is part of a sample that, as a whole, favours compounds with a hit. Of some 83,000 tested, about 20% had one in any assay. Activity calls are given as the source filed them. How the source made its calls: active means growth percent below 10; inactive means the rest.
Possible outcomes: active, inactive

- Molecule: "c1ccc(-c2nnn(-c3ccccc3)n2)cc1"
  Classification: "inactive"
- Molecule: "Cc1ccccc1Nc1n[nH]c(Cc2ccccc2)n1"
  Classification: "inactive"
- Molecule: "CC(C)(C)c1ccc(C(=O)Nc2sc3cc(O)ccc3c2C(N)=O)cc1"
  Classification: "inactive"
- Molecule: "COc1ccc(C(=O)OC2C(OC3C(O)COC(O[C@H]4C[C@H]5[C@@H]6CC=C7C[C@@H](O)CC[C@]7(C)[C@H]6CC[C@]5(C)[C@H]4[C@H](C)C(=O)CCC(C)C)C3OC(=O)C(C)C)OCC(O)C2O)cc1 (stereo partly drawn)"
  Classification: "inactive"
- Molecule: "COc1cc(OC)c(C(=O)/C=C/c2cccc(OC(C)=O)c2)cc1CC=C(C)C"
  Classification: "inactive"
- Molecule: "COc1cc(/C=C/c2cc(/C=C/c3ccc(O)c(OC)c3)n(C(=O)Nc3ccc(F)c(Cl)c3)n2)ccc1O"
  Classification: "active"
- Molecule: "Cc1ccc2c(C)c3c(ccc4ccccc43)c[n+]2c1"
  Classification: "inactive"
- Molecule: "Cc1[nH]c2ccccc2c1C1=CC(=O)C=CC1=O"
  Classification: "inactive"
- Molecule: "CCCCCCCCCCCCCCCCCC(=O)[O][Sn]([CH2]CCC)([CH2]CCC)[CH2]CCC"
  Classification: "active"
- Molecule: "O=C(CSc1nnc(Cc2ccccc2Nc2c(Cl)cccc2Cl)n1-c1ccccc1)N1N=C(c2ccc3ccccc3c2)CC1c1ccc(Cl)cc1 (stereo not drawn)"
  Classification: "inactive"
- Molecule: "CCOC(OCC)c1cnc2nc(NC(C)=O)[nH]c(=O)c2n1"
  Classification: "inactive"
- Molecule: "ClCc1c(Cl)c(Cl)c(Cl)c(CCl)c1Cl"
  Classification: "inactive"
- Molecule: "Nc1c(Br)cc2c(c1Br)Cc1cc(Cl)ccc1-2"
  Classification: "inactive"
- Molecule: "O=[N+]([O-])c1ccc(N=Nc2c(NNc3ccc([N+](=O)[O-])cn3)cc(S(=O)(=O)O)c3ccccc23)nc1"
  Classification: "inactive"
- Molecule: "C=C(COC(C)=O)[C@H]1CC/C(C)=C/CC/C(C)=C/CC[C@@]2(C)O[C@H]2C1"
  Classification: "inactive"
- Molecule: "CN1C(=O)C(C(=O)/C=C/c2ccccc2C(=O)O)C(=O)N(C)C1=O"
  Classification: "inactive"
- Molecule: "N/C(=C\\C(=O)n1nc(-c2ccccc2)cc1N)c1ccccc1"
  Classification: "inactive"
- Molecule: "NC(=O)N/N=C\\c1ccc([N+](=O)[O-])o1"
  Classification: "inactive"
- Molecule: "COc1cc(C2CC(c3ccc(C)cc3)=NN2C=O)ccc1Oc1ccnc2cc(Cl)ccc12 (stereo not drawn)"
  Classification: "inactive"
- Molecule: "Cc1nn(-c2cccc(Cl)c2)c(C)c1N=Nc1ccc(Br)cc1"
  Classification: "inactive"
- Molecule: "NC(N)=N/N=C/c1ccc(Cl)cc1"
  Classification: "inactive"
- Molecule: "CNC(=O)OC1C(O[C@H]2C[C@H]3[C@@H]4CC=C5C[C@@H](O)CC[C@]5(C)[C@H]4CC[C@]3(C)[C@H]2[C@H](C)C(=O)CCC(C)C)OCC(O)C1OC1OCC(O)C(O)C1OC(=O)c1ccc(OC)cc1 (stereo partly drawn)"
  Classification: "inactive"
- Molecule: "COc1cc2c(c(OC)c1O)C(=O)C(OC)C(c1ccc(O)c(O)c1)O2 (stereo not drawn)"
  Classification: "inactive"
- Molecule: "Nc1c(C(=O)Nc2ccccc2)sc2nc3c(cc12)C(=O)CCC3"
  Classification: "inactive"
- Molecule: "COc1cccc(NC(=O)OC(C)C)c1"
  Classification: "inactive"
- Molecule: "N=C(N)c1ccc(NCCNc2ccc(C(=N)N)cc2)cc1"
  Classification: "inactive"
- Molecule: "COc1cccc(/C(C)=N/NC(=O)CSc2nc3ccccc3c(=O)n2CCc2ccc(S(N)(=O)=O)cc2)c1"
  Classification: "inactive"
- Molecule: "Nc1nc(N)c2cc(NCc3ccc(Cl)c(Cl)c3)ccc2n1"
  Classification: "active"
- Molecule: "CCN(CC)CCCC(C)Nc1ccnc2ccc(Oc3ccccc3)cc12 (stereo not drawn)"
  Classification: "inactive"
- Molecule: "CN1C(=O)C(C2=NNC(c3ccccc3C(=O)O)C2)C(=O)N(C)C1=O (stereo not drawn)"
  Classification: "inactive"
- Molecule: "O=C(O)c1ccccc1Oc1cc(-c2ccco2)nc(OCCN2CCOCC2)n1"
  Classification: "inactive"
- Molecule: "O=C(Nc1cccc(C2=NCCN2)c1)c1ccc(N=Nc2ccc(C(=O)Nc3cccc(C4=NCCN4)c3)cc2)cc1"
  Classification: "inactive"
- Molecule: "C=CCN1C(=O)/C(=c2\\sc3n(c2=O)C2C(NN=3)N(CC)C(=O)N2CC)c2ccccc21 (stereo not drawn)"
  Classification: "inactive"
- Molecule: "CCc1c(C)c2ccc(O)c(-c3cc(-c4ccccc4)c(C#N)c(=O)[nH]3)c2oc1=O"
  Classification: "inactive"
- Molecule: "Nc1c(C(=O)Nc2cccc(Cl)c2)sc2nc3c(cc12)C(=O)CCC3"
  Classification: "inactive"
- Molecule: "CC(=O)c1ccc(N2C(=O)c3ccc(Oc4ccccc4)cc3C2=O)cc1"
  Classification: "inactive"
- Molecule: "COc1ccc(C(=O)OC2C(OC3C(O)COC(O[C@H]4C[C@H]5[C@@H]6CC=C7C[C@@H](O)CC[C@]7(C)[C@H]6CC[C@]5(C)[C@H]4[C@H](C)C(=O)CCC(C)C)C3OC(N)=O)OCC(O)C2O)cc1 (stereo partly drawn)"
  Classification: "inactive"
- Molecule: "CN(C)c1nc(-c2cccs2)n2nc(-c3ccc(Cl)cc3)cc2n1"
  Classification: "inactive"

# credit: PubChem BioAssay (NCI)
